assay: qHTS assay to test for compound auto fluorescence at 535 nm (green) in HepG2 cell free culture (AID 720686); conditions: Cell-free medium, green autofluorescence 485/535 nm; series mostly up to 46 µM
Activity calls are given as the source filed them. The call rests on the fitted dose curve; in most records, active means well fitted curve in the direction sought with a large enough effect in the repeat runs; inconclusive means weak or mixed curves; inactive means flat fitted curve, though single readings scatter.
Property Label: outcome

Observe how each entry below is paired with its result.
| Molecule | outcome |
| --- | --- |
| O=C1NCCN1c1ncc([N+](=O)[O-])s1 | inactive |
| O=C(O)CO.[NH2-].[NH2-].[Pt+2] | inactive |
| CC(C)(C)NCC(O)CSc1nc(-c2ccc(C(N)=O)s2)cs1 (stereo not given) | inactive |
| O=C(O)C1=C(CSc2nnnn2CS(=O)(=O)O)CS[C@@H]2[C@H](NC(=O)[C@H](O)c3ccccc3)C(=O)N12 | inactive |
| Cn1c(O)c(N=NC(N)=S)c2ccccc21 | inactive |
| COc1ccc(CNCC(O)COc2ccc3[nH]c(=O)ccc3c2)cc1OC (stereo not given) | inactive |
| CC[C@H](C)[C@@H]1NC(=O)[C@H](Cc2ccc(O)cc2)NC(=O)[C@@H](N)CSSC[C@@H](C(=O)N2CCC[C@H]2C(=O)N[C@@H](CC(C)C)C(=O)NCC(N)=O)NC(=O)[C@H](CC(N)=O)NC(=O)[C@H](CCC(N)=O)NC1=O | inactive |
| COc1cc(Br)c(C[N+]2(CCOCCC3CCC4CC3C4(C)C)CCOCC2)cc1OC (stereo not given) | inactive |

Please indicate outcome recorded for `O=C(O)[C@H]1/C(=C/CO)O[C@@H]2CC(=O)N21`
inactive

Please indicate outcome recorded for `COC(=O)CCC(=O)CN`
inactive

---

experiment: qHTS assay to test for compound auto fluorescence at 460 nm (blue) in HEK293 cells (AID 720678); settings: blue autofluorescence 405/460 nm; series mostly up to 46 µM
Calls of active or inactive are those of the source. Calls follow the shape of the dose curve; as a rule, active = well fitted curve in the direction sought with a large enough effect in the repeat runs; inconclusive = weak or mixed curves; inactive = flat fitted curve, though single readings scatter. Positions of bridges follow the written chain, without caps; N, C: chain ends. Non-standard residues stand in square brackets, D forms with d. Residues, ends and D or L forms follow the SMILES beside them. Orn = NCCC[C@H](N)C(=O)O; Mpa = O=C(O)CCS

| Compound | outcome |
| --- | --- |
| C=C1CC[C@@H]2[C@](C)(CO)[C@H](O)CC[C@@]2(C)[C@@H]1C/C=C1/C(=O)OC[C@H]1O | inactive |
| CCOc1ccc(C[C@H]2NC(=O)CCSSC[C@@H](C(=O)N3CCC[C@H]3C(=O)N[C@@H](CCCN)C(=O)NCC(N)=O)NC(=O)[C@H](CC(N)=O)NC(=O)[C@H]([C@@H](C)O)NC(=O)[C@H]([C@@H](C)CC)NC2=O)cc1 ([Mpa][dY](Et)ITNCP[Orn]G-NH2; disulfide 1-6) | inactive |
| C#C[C@]1(O)CC[C@H]2[C@@H]3CCC4=C/C(=N/O)CC[C@@H]4[C@H]3CC[C@@]21CC | inactive |

---

assay: qHTS assay for small molecules that induce genotoxicity in human embryonic kidney cells expressing luciferase-tagged ATAD5 - cell viability (AID 651634); conditions: HEK293T ATAD5-luc cells viability, CellTiter-Fluor, 15.5 h; series mostly up to 83.3 µM; further: nearly all actives have a fitted effect of over 25% in size
Records with an inconclusive call do not appear. Activity calls are given as the source filed them. Calls follow the shape of the full dose curve.
Form entry, call: pick from y = active, n = inactive

Worked set:
| Compound | Label Class |
| --- | --- |
| Cn1c(=O)c2c(ncn2CCOC(=O)C(C)(C)Oc2ccc(Cl)cc2)n(C)c1=O | n |
| O=C(CCCCCCCCCCCCC1CCCC1)Nc1ccc(S(=O)(=O)c2ccc(NC(=O)CCCCCCCCCCCCC3CCCC3)cc2)cc1 | n |
| CCCCCCCCCCCCCCCC(=O)OC[C@@H](NC(=O)C(Cl)Cl)[C@H](O)c1ccc([N+](=O)[O-])cc1 | n |
| CCOC(=O)[C@H](CS)NCCN[C@@H](CS)C(=O)OCC | n |
| C=CC1=C(C)C2=CC3=NC(=C(CC(=O)[O-])C4=NC(=C(C)C4=C([O-])[O-])C=c4[n-]c(c(C)c4CC)=CC1=N2)C(CCC(=O)[O-])C3C.[Cu+2].[Na+].[Na+].[Na+] (centres undefined) | y |
| CCOc1ccc(N=Nc2ccc(N)cc2N)cc1 | y |
| Cc1c(N)nc(C(CC(N)=O)NCC(N)C(N)=O)nc1C(=O)NC(C(=O)NC(C)C(O)C(C)C(=O)NC(C(=O)NCCc1nc(-c2nc(C(=O)NCCCN[C@@H](C)c3ccccc3)cs2)cs1)C(C)O)C(O[C@@H]1O[C@@H](CO)[C@@H](O)[C@H](O)[C@@H]1O[C@H]1O[C@H](CO)[C@@H](O)[C@H](OC(N)=O)[C@@H]1O)c1cnc[nH]1 (some centres undefined) | n |
| Cc1ccc(C2(O)CCN(CCCC(=O)c3ccc(F)cc3)CC2)cc1 | n |

Okay, next one:
How was `O=P(O)(O)OC(CO)CO` classified in this test?
n

---

molecular target: Estrogen receptor (Homo sapiens); assay: qHTS assay to identify small molecule agonists of the estrogen receptor alpha (ER-alpha) signaling pathway using the BG1 cell line (AID 743079); conditions: BG1Luc4E2 cells, ERE-luciferase agonist, 22 h; further: nearly all actives have a fitted effect of over 20% in size
Records with an inconclusive call do not appear. The source made the active and inactive calls. Calls follow the shape of the dose curve; as a rule, active = well fitted activation curve with a large enough effect in the repeat runs; inconclusive = weak or mixed curves, or effect the other way; inactive = no such curve, though single readings can be large or run the other way.
Form entry, call: pick from true (1) = active, false (0) = inactive

Worked set:
| Compound | Label Class |
| --- | --- |
| CC(CN1c2ccccc2Sc2ccc(S(=O)(=O)N(C)C)cc21)N(C)C (stereo not drawn) | false (0) |
| CC(=O)OC[C@H]1O[C@@H](O[C@H]2[C@H](O)[C@@H](OC(=O)c3ccccc3C(=O)O)[C@H](O)O[C@@H]2COC(C)=O)[C@H](O)[C@@H](OC(=O)c2ccccc2C(=O)O)[C@@H]1O | false (0) |
| C[C@@H]1CCC2[C@@H](C)[C@@H](O)O[C@@H]3O[C@@]4(C)CC[C@@H]1[C@@]23OO4 (stereo partly drawn) | false (0) |
| O=C(Nc1ccc(O)cc1)c1ccccc1O | true (1) |
| C=C[C@]1(C)C[C@@H](OC(=O)CSCCN(CC)CC)[C@]2(C)[C@H](C)CC[C@]3(CCC(=O)[C@H]32)[C@@H](C)[C@@H]1O | false (0) |

How was CC(C)c1nc(N(C)S(C)(=O)=O)nc(-c2ccc(F)cc2)c1/C=C/C(O)CC(O)CC(=O)O (stereo not drawn) classified in this test?
true (1)

How was `CC(C)(C)NC[C@H](O)COc1ccccc1C1CCCC1` classified in this test?
false (0)

How was CN1c2c(nc(N)[nH]c2=O)NCC1CNc1ccc(C(=O)NC(CCC(=O)O)C(=O)O)cc1 (stereo not drawn) classified in this test?
false (0)

---

assay: qHTS assay for small molecule agonists of the p53 signaling pathway - cell viability (AID 651633); details: p53RE-bla HCT-116 viability, ATP luminescence, 16 h; series mostly up to 83.3 µM; further: nearly all actives have a fitted effect of over 30% in size
Results filed as inconclusive are left out. Active and inactive are the calls of the source. The call rests on the fitted dose curve.
Form entry, call: pick from active, inactive

| Compound | Label Class |
| --- | --- |
| C#C[C@]1(OC(C)=O)CC[C@H]2[C@@H]3CCC4=CC(=O)CC[C@@H]4[C@H]3CC[C@@]21C | inactive |
| CC1C(=O)CC2C3(C)CCC2(C(C)C(=O)O)C(=O)C13 (stereo unspecified) | inactive |
| N=C(N)c1ccc(OCCCOc2ccc(C(=N)N)cc2Br)c(Br)c1 | inactive |
| CC(C)(C)C(=O)OCOC(=O)[C@@H]1N2C(=O)[C@@H](N=CN3CCCCCC3)[C@H]2SC1(C)C | inactive |
| COc1ccc2cc([C@H](C)CO)ccc2c1 | inactive |

How was `CC1(C)N=C(N)N=C(N)N1c1ccc(Cl)cc1` classified in this test?
active

How was CC(C)(C)C1(O)CCN2CC3c4ccccc4CCc4cccc(c43)C2C1 (stereo unspecified) classified in this test?
active

How was `O=C(Cc1cccs1)N[C@@H]1C(=O)N2C(C(=O)[O-])=C(C[n+]3ccccc3)CS[C@H]12` classified in this test?
inactive

How was CC1(S(=O)(=O)O)CC(=O)c2ccccc2C1=O (stereo unspecified) classified in this test?
active

How was CCN1C(=O)NC(c2ccccc2)C1=O (stereo unspecified) classified in this test?
inactive

How was C=C(NC(=O)C(=C)NC(=O)c1csc(C2=N[C@@H]3c4csc(n4)[C@H]4NC(=O)c5csc(n5)[C@H]([C@](C)(O)[C@@H](C)O)NC(=O)[C@H]5CSC(=N5)C(=CC)NC(=O)C([C@@H](C)O)NC(=O)c5csc(n5)[C@]3(CC2)NC(=O)[C@H](C)NC(=O)C(=C)NC(=O)[C@H](C)NC(=O)C([C@@H](C)CC)NC2C=Cc3c([C@H](C)O)cc(nc3C2O)C(=O)O[C@@H]4C)n1)C(N)=O (stereo partly specified) classified in this test?
inactive

How was `O=C(O)c1cccc(/C=C2/C[C@@H]3[C@@H](/C=C/[C@@H](O)C4CCCCC4)[C@H](O)C[C@@H]3O2)c1` classified in this test?
inactive

How was `CO[C@H]1[C@@H](O)[C@H](N)[C@@H](O[C@H]2O[C@H]([C@H](C)N)CC[C@H]2N)[C@H](O)[C@@H]1N(C)C(=O)CN` classified in this test?
inactive

How was `CCCCCCCCCCCCCCCC(=O)OC[C@@H](O)[C@H]1OC[C@H](O)[C@H]1O` classified in this test?
inactive

How was `CC1=C(/C=C/C(C)=C/C=C/C(C)=C/C(=O)Oc2c(C)c(C)c3c(c2C)CC[C@@](C)(CCC[C@H](C)CCC[C@H](C)CCCC(C)C)O3)C(C)(C)CCC1` classified in this test?
inactive

How was `CCCCc1cc2c(=O)c(C(=O)OC)c[nH]c2cc1OCc1ccccc1` classified in this test?
inactive
